Test system: anti-HER2 antibody Trastuzumab
Experiment: Coupling of linker-drug conjugates with Trastuzumab
Format: physicochemical
Conditions: highest DAR (excessive coupling)
metric: Whether precipitation

[[record]]
compound = "CCC1(O)C(=O)OC(=O)C2=C1C=C1c3nc4cc(F)c(C)c5c4c(c3CN1C2)C(NC(=O)COCNC(=O)CNC(=O)C(Cc1ccccc1)NC(=O)CNC(=O)CNC(=O)C(CCCCN1C(=O)C=CC1=O)S(=O)(=O)O)CC5 (stereo not drawn) [LE02]"
experimental_value = "No"

[[record]]
compound = "CC[C@@]1(O)C(=O)OC(=O)C2=C1C=C1c3nc4cc(F)c(C)c5c4c(c3CN1C2)[C@@H](NC(=O)COCN(CCS(C)(=O)=O)C(=O)OCc1ccc(NC(=O)[C@H](C)NC(=O)[C@@H](NC(=O)C2CCC(CN3C(=O)C=CC3=O)CC2)C(C)C)cc1)CC5 (stereo partly drawn) [LE16]"
experimental_value = "No"

[[record]]
compound = "CCC1(O)C(=O)OC(=O)C2=C1C=C1c3nc4cc(F)c(C)c5c4c(c3CN1C2)C(NC(=O)COCNC(=O)CNC(=O)C(Cc1ccccc1)NC(=O)CNC(=O)CNC(=O)C(CN)N1C(=O)C=CC1=O)CC5 (stereo not drawn) [LE03]"
experimental_value = "No"


* * *

System: anti-HER2 antibody Trastuzumab
Assay: Coupling of linker-drug conjugates with Trastuzumab
Assay type: physicochemical
Conditions: highest DAR (excessive coupling)
Method: The anti-B7-H3 antibody P2E5, anti-Claudin18.2 antibody IMAB362, and anti-HER2 antibody Trastuzumab (concentration was 15 mg/mL) were replaced into 50 mM PB/1.0 mM EDTA buffer (pH 7.0) by a G25 desalting column, respectively. 12 equivalents of TECP was added and the mixture was stirred at 37° C. for 2 hours to fully open the disulfide bonds between the antibody chains. […] The UV method was used to measure the absorbance values at 280 nm and 370 nm respectively, and the DAR value was calculated.
Starred links: 1 amine or outer side, 2 acyl side, 3 side chain; linkers in the order of their positions; H or OH if unused. Non-standard residues stand in square brackets, D forms with d. Residues, ends and D or L forms follow the SMILES beside them. *: point of attachment. Exatecan = CC[C@@]1(O)C(=O)OCc2c1cc1n(c2=O)Cc2c-1nc1cc(F)c(C)c3c1c2[C@@H](N*)CC3; X2 = CC[C@@]1(O)C(=O)OC(=O)C2=C1C=C1c3nc4cc(F)c(C)c5c4c(c3CN1C2)[C@@H](N*)CC5; Hexanoyl(6-maleimido) = O=C1C=CC(=O)N1CCCCCC(=O)*; X3 = O=C1C=CC(=O)N1CC1CCC(C(=O)*)CC1; NHCH2OCH2CO = O=C(COCN[*:1])[*:2]
Task for the reader: assign each of the following compounds its reported Ratio of aggregates.
One number for each entry, in %.

Solved cases below.
[[record]]
compound = "CC[C@@]1(O)C(=O)OC(=O)C2=C1C=C1c3nc4cc(F)c(C)c5c4c(c3CN1C2)[C@@H](NC(=O)COCNC(=O)CNC(=O)[C@H](Cc1ccccc1)NC(=O)CNC(=O)CNC(=O)[C@H](CCCCN)NC(=O)CCCCCN1C(=O)C=CC1=O)CC5 [LE06] ({Hexanoyl(6-maleimido)}-KGGFG[NHCH2OCH2CO]-X2)"
experimental_value = 0.5

[[record]]
compound = "CC[C@@]1(O)C(=O)OCc2c1cc1n(c2=O)Cc2c-1nc1cc(F)c(C)c3c1c2[C@@H](NC(=O)COCNC(=O)CNC(=O)[C@H](Cc1ccccc1)NC(=O)CNC(=O)CNC(=O)C1CCC(CN2C(=O)C=CC2=O)CC1)CC3 (some centres unmarked) [LE01] (X3-GGFG[NHCH2OCH2CO]-Exatecan)"
experimental_value = 0.2

[[record]]
compound = "CC[C@@]1(O)C(=O)OCc2c1cc1n(c2=O)Cc2c-1nc1cc(F)c(C)c3c1c2[C@@H](NC(=O)COCNC(=O)CNC(=O)[C@H](Cc1ccccc1)NC(=O)[C@H](C)NC(=O)[C@@H](NC(=O)CCCCCN1C(=O)C=CC1=O)C(C)C)CC3 [LE23] ({Hexanoyl(6-maleimido)}-VAFG[NHCH2OCH2CO]-Exatecan)"
experimental_value = 0.1

[[record]]
compound = "CC[C@@]1(OCN(CCS(C)(=O)=O)C(=O)OCc2ccc(NC(=O)[C@H](C)NC(=O)[C@@H](NC(=O)CCCCCN3C(=O)C=CC3=O)C(C)C)cc2)C(=O)OCc2c1cc1n(c2=O)Cc2c-1nc1cc(F)c(C)c3c1c2[C@@H](NC(=O)CO)CC3"
experimental_value = 0.2


Look up Ratio of aggregates for the entries below, preserving their order.
1. CC[C@@]1(O)C(=O)OCc2c1cc1n(c2=O)Cc2c-1nc1cc(F)c(C)c3c1c2[C@@H](NC(=O)COCNC(=O)CNC(=O)[C@H](Cc1ccccc1)NC(=O)CNC(=O)CNC(=O)CCCCCN1C(=O)C=CC1=O)CC3 [GGFG-Dxd, reference compound] ({Hexanoyl(6-maleimido)}-GGFG[NHCH2OCH2CO]-Exatecan)
2. CCC1(O)C(=O)OC(=O)C2=C1C=C1c3nc4cc(F)c(C)c5c4c(c3CN1C2)C(NC(=O)COCNC(=O)CNC(=O)C(Cc1ccccc1)NC(=O)CNC(=O)CNC(=O)CCOCCOCCOCCOCCOCCOCCOCCOCCN1C(=O)C=CC1=O)CC5 (centres unmarked)
3. CC[C@@]1(O)C(=O)OC(=O)C2=C1C=C1c3nc4cc(F)c(C)c5c4c(c3CN1C2)[C@@H](NC(=O)COCN(CCS(C)(=O)=O)C(=O)OCc1ccc(NC(=O)[C@H](C)NC(=O)[C@@H](NC(=O)C(CCCCN2C(=O)C=CC2=O)S(=O)(=O)O)C(C)C)cc1)CC5 (some centres unmarked)
4. CCC1(O)C(=O)OC(=O)C2=C1C=C1c3nc4cc(F)c(C)c5c4c(c3CN1C2)C(NC(=O)COCNC(=O)CNC(=O)C(Cc1ccccc1)NC(=O)CNC(=O)CNC(=O)C(CN)N1C(=O)C=CC1=O)CC5 (centres unmarked)
5. CC[C@@]1(O)C(=O)OC(=O)C2=C1C=C1c3nc4cc(F)c(C)c5c4c(c3CN1C2)[C@@H](NC(=O)COCN(CCN(C)C)C(=O)OCc1ccc(NC(=O)[C@H](C)NC(=O)[C@@H](NC(=O)CCCCCN2C(=O)C=CC2=O)C(C)C)cc1)CC5
6. CC[C@@]1(OCN(CCN(C)C)C(=O)OCc2ccc(NC(=O)[C@H](C)NC(=O)[C@@H](NC(=O)CCCCCN3C(=O)C=CC3=O)C(C)C)cc2)C(=O)OCc2c1cc1n(c2=O)Cc2c-1nc1cc(F)c(C)c3c1c2[C@@H](NC(=O)CO)CC3
7. CCC1(O)C(=O)OC(=O)C2=C1C=C1c3nc4cc(F)c(C)c5c4c(c3CN1C2)C(NC(=O)COCNC(=O)CNC(=O)C(Cc1ccccc1)NC(=O)CNC(=O)CNC(=O)C(CCCCN1C(=O)C=CC1=O)S(=O)(=O)O)CC5 (centres unmarked)

1: 0.1; 2: 0.1; 3: 0.2; 4: 0.2; 5: 0.1; 6: 0.5; 7: 0.2

Look up Ratio of aggregates for the entries below, preserving their order.
1. CC[C@@]1(O)C(=O)OCc2c1cc1n(c2=O)Cc2c-1nc1cc(F)c(C)c3c1c2[C@@H](NC(=O)COCNC(=O)CNC(=O)[C@H](Cc1ccccc1)NC(=O)[C@H](CS)NC(=O)[C@@H](NC(=O)CCCCCN1C(=O)C=CC1=O)C(C)C)CC3 [LE24] ({Hexanoyl(6-maleimido)}-VCFG[NHCH2OCH2CO]-Exatecan)
2. CC[C@@]1(O)C(=O)OC(=O)C2=C1C=C1c3nc4cc(F)c(C)c5c4c(c3CN1C2)[C@@H](NC(=O)COCN(CCS(C)(=O)=O)C(=O)OCc1ccc(NC(=O)[C@H](C)NC(=O)[C@@H](NC(=O)CCCn2cc(CNC3CCC(CN4C(=O)C=CC4=O)CC3)nn2)C(C)C)cc1)CC5 (some centres unmarked)
3. CC[C@@]1(O)C(=O)OCc2c1cc1n(c2=O)Cc2c-1nc1cc(F)c(C)c3c1c2[C@@H](NC(=O)COCNC(=O)CNC(=O)[C@H](Cc1ccccc1)NC(=O)CNC(=O)[C@H](CCCCN)NC(=O)CCCCCN1C(=O)C=CC1=O)CC3.O=C(O)C(F)(F)F [LE07] ({Hexanoyl(6-maleimido)}-KGFG[NHCH2OCH2CO]-Exatecan)

0.1
0.1
0.5

All figures here come from patent US20220233708A1.
